Just for reference, ChEMBL document CHEMBL2331526 is where these values come from.

Listed here are compounds together with their documented Time.
Test system: Rattus norvegicus
Experiment Summary: Anesthetic effect in Sprague-Dawley rat assessed as onset time of disappearance of the righting reflex at 2 times ED50, iv
Assay type: functional
Quick note: give the figure in min, leave out the unit.

CC(C)c1cccc(C(C)C)c1OC(=O)CCCOP(=O)([O-])[O-].[Na+].[Na+]	2.11
CC(C)c1cccc(C(C)C)c1O	0

## Task Requested field: Time. Item: CC(C)c1cccc(C(C)C)c1OCOP(=O)([O-])[O-].[Na+].[Na+] [FOSPROPOFOL DISODIUM]
## Result 2.17

## Task Would you mind doing `CC(C)c1cccc(C(C)C)c1OC(=O)CCCOC(=O)CN.O=C(O)C(F)(F)F` as well?
## Result 0.26

## Task Quick one: `CC(C)c1cccc(C(C)C)c1OC(=O)CCCO`
## Result 0.06

----------
Experiment Summary: Therapeutic index, ratio of LD50 for Sprague-Dawley rat to ED50 for Sprague-Dawley rat
Assay type: organism-based
Settings: in vivo, read-out: TI
Mark each entry met if its selectivity ratio sits below 4, and not met for all others.

## Task Does this molecule meet the criterion selectivity ratio < 4? CC(C)c1cccc(C(C)C)c1OCOP(=O)([O-])[O-].[Na+].[Na+] [FOSPROPOFOL DISODIUM]
## Result not met

## Task Please answer likewise for `CC(C)c1cccc(C(C)C)c1OC(=O)CCCOC(=O)CN.O=C(O)C(F)(F)F`
## Result met

## Task Input CC(C)c1cccc(C(C)C)c1O [PROPOFOL]
## Result not met

## Task Another molecule to look at: `CC(C)c1cccc(C(C)C)c1OC(=O)CCCO`
## Result not met

## Task And what about the molecule `CC(C)c1cccc(C(C)C)c1OC(=O)CCCOP(=O)([O-])[O-].[Na+].[Na+]` ?
## Result not met

----------
Experiment Summary: Solubility of the compound in water
Assay type: physicochemical
Settings: buffer
Reported Endpoint: solubility

CCCC(=O)Oc1c(C(C)C)cccc1C(C)C	Insoluble
CC(C)c1cccc(C(C)C)c1OC(=O)CCCOC(=O)CN.O=C(O)C(F)(F)F	soluble
CC(C)c1cccc(C(C)C)c1OCCCCO	Insoluble
CC(C)c1cccc(C(C)C)c1OC(=O)CCCOP(=O)([O-])[O-].[Na+].[Na+]	soluble

----------
Experiment Summary: Toxicity in iv dosed Sprague-Dawley rat
Type: organism-based
Settings: in vivo
hey, just use met if measured LD50 is less than 40 mg/kg, otherwise not met

Example cases with answers are listed next.
CC(C)c1cccc(C(C)C)c1OCOP(=O)([O-])[O-].[Na+].[Na+] [FOSPROPOFOL DISODIUM]	not met
CC(C)c1cccc(C(C)C)c1O	met
CC(C)c1cccc(C(C)C)c1OC(=O)CCCO	not met
CC(C)c1cccc(C(C)C)c1OC(=O)CCCOP(=O)([O-])[O-].[Na+].[Na+]	not met

## Task Report whether reported LD50 is lower than 40 mg/kg (strictly) for `CC(C)c1cccc(C(C)C)c1OC(=O)CCCOC(=O)CN.O=C(O)C(F)(F)F`
## Result not met
